Data origin: patent US20220064272A1

# target_under_test: T1, TauC3 (C-terminally truncated tau fragment ending at aspartate 421 of htau40) (human, UniProt P10636 1-738)
# T1 construct: Generated and purified by Genscript; also called Human TauC3; recombinant TauC3 protein
# run_description: SPR (Biacore) kinetics, TauC3 amine-coupled on CM5, 1:1 global fit
Decide by koff: equal to or exceeding 0.003 s⁻¹ means yes, less means no.

Worked examples, 4 binders total:
- Tau01 HMKM HuG4k (antibody, V domains shown, human IgG4 kappa (HuG4K)) VH: LVQLVESGGGLVQPGGSLKLSCAASGFTFNTYAMNWVRQASGKGLEWVARIRSKSNNYATYYAASVKGRFTISRDDSKSMAYLQMDSLKTEDTAVYYCVGGGDFWGQGTLVTVSS VL: DIQMTQSPSSLSASVGDRVTITCRASQEISVYLSWFQQKPGKAIKRLIYGAFSLQSGVPSRFSGSRSGTEYTLTISSLQPEDFATYYCLQYVRYPWTFGGGTKVEIK: yes
- Tau01 HMKN HuG4k (antibody, V domains shown, human IgG4 kappa (HuG4K)) VH: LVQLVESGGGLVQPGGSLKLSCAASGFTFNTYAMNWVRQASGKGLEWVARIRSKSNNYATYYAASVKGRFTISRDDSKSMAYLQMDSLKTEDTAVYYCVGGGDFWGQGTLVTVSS VL: DIQMTQSPSSLSASVGDRVTITCRASQEISVYLGWYQQKPGKAPKRLIYGAFTLQSGVPSRFSGSRSGTEYTLTISSLQPEDFATYYCLQYVRYPWTFGGGTKVEIK: no
- MoTau01 HuG4K chimeric antibody (antibody, V domains shown, Mouse variable regions with human IgG4 / kappa constant regions (pHuG4, pHuK); also called chimeric Tau01) VH: EVQVVESGGGLVQPKGSLKLSCAASGFTFNTYAMNWVRQAPGKGLEWVARIRSKSNNYATYYADSVKDRFTISRDDSQSMVYLQMNNLKTEDTAMYYCVGGGDFWGQGTALTVSS VL: DIQMTQSPSSLSASLGERVSLTCRASQEISVYLSWFQQKPDGTIKRLIYGAFTLDSGVPKRFSGSRSGSDYSLTISSLESEDFADYYCLQYVRYPWTFGGGTKLEIK: no
- Tau01 HMKO HuG4k (antibody, V domains shown, human IgG4 kappa (HuG4K)) VH: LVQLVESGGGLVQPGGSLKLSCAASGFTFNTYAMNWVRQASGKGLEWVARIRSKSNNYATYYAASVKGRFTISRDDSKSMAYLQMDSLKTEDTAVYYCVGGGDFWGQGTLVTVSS VL: DIQMTQSPSSLSASVGDRVTITCRASQEISVYLGWYQQKPGKAPKRLIYGAFSLQSGVPSRFSGSRSGTEYTLTISSLQPEDFATYYCLQYVRYPWTFGGGTKVEIK: yes

Ask: Assess whether reported koff for Tau01 HMKP HuG4k (antibody, V domains shown, human IgG4 kappa (HuG4K); Lead candidate) VH: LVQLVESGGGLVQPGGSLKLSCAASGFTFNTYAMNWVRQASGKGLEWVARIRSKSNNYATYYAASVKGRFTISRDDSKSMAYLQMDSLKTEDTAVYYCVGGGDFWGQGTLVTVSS VL: DIQMTQSPSSLSASVGDRVTITCRASQEISVYLGWFQQKPGKAPKRLIYGAFKLQSGVPSRFSGSRSGTEYTLTISSLQPEDFATYYCLQYVRYPWTFGGGTKVEIK sits at 0.003 s⁻¹ or higher.
Result: no

Ask: Assess whether reported koff for Tau01 HMKE HuG4k (antibody, V domains shown, human IgG4 kappa (HuG4K); also called KMKE) VH: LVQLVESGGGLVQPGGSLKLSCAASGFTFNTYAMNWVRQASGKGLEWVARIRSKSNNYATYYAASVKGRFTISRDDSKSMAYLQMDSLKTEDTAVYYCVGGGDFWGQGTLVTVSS VL: DIQMTQSPSSLSASVGDRVTITCRASQEISVYLGWFQQKPGKAPKRLIYGAFKLQSGVPSRFSGSRSGTEFTLTISSLQPEDFATYYCLQYVRYPWTFGGGTKVEIK sits at 0.003 s⁻¹ or higher.
Result: no
